targetUnderTest: human GluN1^FA,TL/GluN3A receptors (Homo sapiens, UniProt Q8TCU5)
Construct: Human GluN3A (NP_597702.2) and rat GluN3B (NP_579842.2) were synthesized and subcloned into SP6 plasmids; expressed in transfected cells; host or cells: Xenopus laevis oocytes, cRNA injection (GluN1:GluN3 1:3)
Sequence (Q8TCU5 24-1115, other chains not shown): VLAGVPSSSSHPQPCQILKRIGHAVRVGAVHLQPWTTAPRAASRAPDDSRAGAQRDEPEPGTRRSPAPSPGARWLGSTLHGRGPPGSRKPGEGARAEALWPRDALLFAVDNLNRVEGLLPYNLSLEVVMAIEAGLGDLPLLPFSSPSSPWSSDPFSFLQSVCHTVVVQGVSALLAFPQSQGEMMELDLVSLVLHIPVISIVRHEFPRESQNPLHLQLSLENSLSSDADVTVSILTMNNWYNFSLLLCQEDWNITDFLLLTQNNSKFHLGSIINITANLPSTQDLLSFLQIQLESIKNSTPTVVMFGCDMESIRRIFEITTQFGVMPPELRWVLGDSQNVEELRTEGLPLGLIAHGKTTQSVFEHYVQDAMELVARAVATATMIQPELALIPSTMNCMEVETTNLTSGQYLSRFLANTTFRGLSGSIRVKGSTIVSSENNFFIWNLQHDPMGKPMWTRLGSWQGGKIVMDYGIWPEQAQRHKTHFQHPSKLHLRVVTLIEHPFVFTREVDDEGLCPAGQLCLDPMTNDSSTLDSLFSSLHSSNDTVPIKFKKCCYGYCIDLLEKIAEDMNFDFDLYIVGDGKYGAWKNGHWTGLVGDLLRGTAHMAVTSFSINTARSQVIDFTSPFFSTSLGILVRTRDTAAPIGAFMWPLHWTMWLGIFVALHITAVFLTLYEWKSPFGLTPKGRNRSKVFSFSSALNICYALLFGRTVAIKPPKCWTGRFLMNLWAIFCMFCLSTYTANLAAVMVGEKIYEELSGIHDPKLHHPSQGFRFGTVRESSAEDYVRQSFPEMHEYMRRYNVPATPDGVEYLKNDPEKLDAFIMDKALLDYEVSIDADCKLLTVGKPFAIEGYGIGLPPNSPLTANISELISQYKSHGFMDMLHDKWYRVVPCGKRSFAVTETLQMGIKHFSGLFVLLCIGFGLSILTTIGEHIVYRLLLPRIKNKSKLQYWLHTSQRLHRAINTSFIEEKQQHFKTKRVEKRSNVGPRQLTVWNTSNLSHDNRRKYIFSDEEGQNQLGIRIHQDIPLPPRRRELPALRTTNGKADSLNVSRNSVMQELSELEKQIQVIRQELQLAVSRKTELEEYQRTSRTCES
procedureDetails: Two-electrode voltage-clamp recordings of GluN1^FA,TL/GluN3A receptors in Xenopus oocytes
Type: cell-based
assayConditions: pH 6.8; read-out: IC50
measurementType: IC50 (µM)
Please give a number only; it is taken to be in µM.

(Q) Quick one: IC50 of COc1ccc(OCC(c2ccc(OC)cc2)N2Cc3ccccc3C2=O)cc1 (racemic) [EU1180-438] ?
(A) 4.2

----------
targetUnderTest: human GluN1/GluN3A receptors (Homo sapiens, UniProt Q05586+Q8TCU5)
Construct: Human GluN3A (NP_597702.2) and rat GluN3B (NP_579842.2) were synthesized and subcloned into SP6 plasmids
Sequence (Q8TCU5 24-1115, other chains not shown): as above
procedureDetails: Two-electrode voltage-clamp recordings of GluN1/GluN3A receptors in the presence of CGP-78608 (Xenopus oocytes)
assayConditions: pH 7.4; 0.5 μM CGP-78608; read-out: EC50, (95% CI) GluN1/GluN3A + CGP
measurementType: EC50 (nM)
Please give a number only; it is taken to be in nM.

(Q) Quick one: EC50 of COc1ccc(OCC(c2ccc(OC)cc2)N2Cc3ccccc3C2=O)cc1 (racemic) ?
(A) 1800

----------
procedureDetails: In vivo pharmacokinetics and brain penetration in mice
Design: species or system mouse
assayConditions: male, C57BL/6, mouse, plasma, ip, 20 mg/kg, mice; 20 mg/kg intraperitoneal; 0.25 hour; read-out: Plasma Concentration
measurementType: concentration at 0.25 h (nM)
Please give a number only; it is taken to be in nM.

(Q) Quick one: concentration at 0.25 h of COc1ccc(OCC(c2ccc(OC)cc2)N2Cc3ccccc3C2=O)cc1 (racemic) ?
(A) 2300

----------
procedureDetails: In vivo pharmacokinetics and brain penetration in mice
Parameters: species or system mouse
assayConditions: male, C57BL/6, mouse, brain, ip, 20 mg/kg, mice; 20 mg/kg intraperitoneal; 2 hour; read-out: Mean Ratio (brain to plasma)
Description: EU1180-438 was dosed at 20 mg/kg intraperitoneal in seven freely-fed male C57BL/6 mice. EU1180-438 was formulated in 5% DMA, 10% PEG, 30% HPBCD, qs to volume w/water. Plasma was sampled at seven points: pre-dose, 0.25, 0.5, 1, 2, 4, and 8 hours (n=3 per time point, 21 plasma samples per treatment group). […] Samples were analyzed via LC-MS/MS to quantify the amount of parent compound present in each sample. EU1180-438 was tested in male C57BL/6 mice for brain penetrability. […]
measurementType: Kp at 2 h
Lab note: record the figure alone, no unit after it.

(Q) Quick one: Kp at 2 h of COc1ccc(OCC(c2ccc(OC)cc2)N2Cc3ccccc3C2=O)cc1 (racemic) [EU1180-438] ?
(A) 0.88

----------
procedureDetails: In vivo pharmacokinetics and brain penetration in mice
Parameters: species or system mouse
assayConditions: male, C57BL/6, mouse, brain, ip, 20 mg/kg, mice; 20 mg/kg intraperitoneal; 1 hour; read-out: Brain Concentration
measurementType: concentration at 1 h (nM)
Please give a number only; it is taken to be in nM.

(Q) Quick one: concentration at 1 h of COc1ccc(OCC(c2ccc(OC)cc2)N2Cc3ccccc3C2=O)cc1 (racemic) ?
(A) 1960
